# Tested on: UACC-257
# procedure text: NCI tumour cell line growth inhibition, 48 h
Activity calls are given as the source filed them. Rule as the data show it: active = GI50 up to about 1.1 µM and inactive = higher.
Please reply with one of these outcomes: active, inactive

compound	assigned category
C(/C=N/N=C1NCCCCN1)=N\N=C1NCCCCN1	inactive
O=C(Nc1ccc(Br)cc1)c1c(-c2ccccc2)c2ccc(O)cc2oc1=O	inactive
COc1ccc(/C(Cl)=C(\C=O)c2ccc([N+](=O)[O-])cc2)cc1OC	inactive

Short answer needed: outcome of this test for CCCCc1cc2c(cc1O)CCC1C2CC[C@@]2(C)C1CC[C@@H]2O (some centres undefined) ?
inactive

Record request — test call for `N#Cc1nc(CCCCCN2C(=O)c3ccccc3C2=O)oc1N`
inactive

Hello, the source for this data is ChEMBL document CHEMBL1201862, in case you need it.
